Target Under Test: BRD3(1,2) (Homo sapiens (Human))
Sequence (Q15059 29-417): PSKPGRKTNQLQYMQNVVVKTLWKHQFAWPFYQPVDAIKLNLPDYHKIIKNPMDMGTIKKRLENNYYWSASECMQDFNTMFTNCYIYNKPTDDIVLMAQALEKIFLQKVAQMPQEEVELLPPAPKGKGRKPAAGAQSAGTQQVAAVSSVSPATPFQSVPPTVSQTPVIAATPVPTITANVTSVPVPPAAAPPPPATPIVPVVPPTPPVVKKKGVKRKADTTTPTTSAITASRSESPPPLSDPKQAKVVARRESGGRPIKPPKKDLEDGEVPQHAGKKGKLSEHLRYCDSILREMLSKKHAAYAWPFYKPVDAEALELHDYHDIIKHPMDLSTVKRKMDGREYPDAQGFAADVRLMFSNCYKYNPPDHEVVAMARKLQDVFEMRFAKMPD
Experiment: AlphaScreen binding of compounds on BRD3 (D1+D2)
Test Parameters: read-out: IC50 against BRD3(1,2)
Test Readout: IC50 (nM)
Number only, in nM; omit the unit.

Check out these entries, answers already filled in.
[[record]]
chem_smiles = "[2H]C([2H])([2H])n1cc(-c2cc(S(=O)(=O)N3CC[C@@H](O)C3)cnc2N2CCC3(CC2)CC3)c2cc[nH]c2c1=O"
target_under_test = "BRD3(1,2) (Homo sapiens (Human))"
test_readout = "IC50"
test_value = 5.3

[[record]]
chem_smiles = "[2H]C([2H])([2H])n1cc(-c2cc(S(=O)(=O)N3CC[C@H](O)C3)cnc2N2CCC3(CC2)CC3)c2cc[nH]c2c1=O"
target_under_test = "BRD3(1,2) (Homo sapiens (Human))"
test_readout = "IC50"
test_value = 5.3


--- query ---
Recall the recorded IC50 for [2H]C([2H])([2H])n1cc(-c2cc(S(=O)(=O)N3CC[C@H](O)C3)ccc2N2CCC3(CC2)CC3(F)F)c2cc[nH]c2c1=O with BRD3(1,2) (Homo sapiens (Human)) and state it. 4.1
